# experimental_system: full length SGK1 (Homo sapiens)
# Construct: 125 μM full length SGK1 (Life Technologies Part #PR7358A); purchased Life Technologies PR7358A
# experimental_protocol: SGK1 inhibition Assay A (Caliper LabChip electrophoretic separation of fluorescent peptide substrate and phosphorylated product)
# Type: biochemical
# experimental_conditions: Assay A; 20 μM ATP, 40 min incubation; read-out: SGK1 IC50
Where a name gives a salt, the structure may show the parent alone.
assay_endpoint: pIC50
Worth noting: pIC50 values are minus log10 of concentrations stated in mol/L.

Provide measured pIC50 on full length SGK1 (Homo sapiens) for `CS(=O)(=O)c1ccc(-c2cc(N3CCC[C@@H](NC(=O)c4cncs4)C3)c3c(N)ncnn23)cc1` please.
7.41

Provide measured pIC50 on full length SGK1 (Homo sapiens) for `N#Cc1ncc(-c2cc(N3CCC[C@@H](NC(=O)c4ccc(Cl)s4)C3)c3c(N)ncnn23)cc1C(F)(F)F` please.
7.74

Provide measured pIC50 on full length SGK1 (Homo sapiens) for `CC(C)(O)c1ncc(-c2cc(N3CCC[C@@H](NC(=O)c4ccc(Cl)s4)C3)c3c(N)ncnn23)cn1` please.
6.14

Provide measured pIC50 on full length SGK1 (Homo sapiens) for CC(=O)N1CC=C(c2cc(N3CCC[C@@H](NC(=O)c4sc(Cl)cc4OC4CC5CC4CN5)C3)c3c(N)ncnn23)C1 (stereo partly shown) [Example 606] please.
8.05

Provide measured pIC50 on full length SGK1 (Homo sapiens) for `COc1cscc1C(=O)N[C@@H]1CCCN(c2cc(C3=CCN(C(C)=O)C3)n3ncnc(N)c23)C1` please.
8.00

Provide measured pIC50 on full length SGK1 (Homo sapiens) for `COc1cc(C(=O)N[C@@H]2CCCN(c3cc(C4=CCN(C(C)=O)C4)n4ncnc(N)c34)C2)ccn1` please.
7.64

Provide measured pIC50 on full length SGK1 (Homo sapiens) for `Nc1ncnn2c(-c3ccncc3)cc(N3CCC[C@@H](NC(=O)c4ccccc4)C3)c12` please.
8.30

Provide measured pIC50 on full length SGK1 (Homo sapiens) for CC(=O)N1CC=C(c2cc(N3CCC[C@@H](NC(=O)c4cccc(N5CCN(C)C(C)C5)n4)C3)c3c(N)ncnn23)C1 (stereo partly shown) please.
7.36

Provide measured pIC50 on full length SGK1 (Homo sapiens) for `NCCOc1cc(C(F)F)sc1C(=O)N[C@@H]1CCCN(c2cc(-c3cncnc3)n3ncnc(N)c23)C1` please.
7.82

Provide measured pIC50 on full length SGK1 (Homo sapiens) for `N#Cc1ncc(-c2cc(N3CCC[C@@H](NC(=O)c4ccc(Cl)s4)C3)c3c(N)ncnn23)cc1F` please.
7.96

Provide measured pIC50 on full length SGK1 (Homo sapiens) for Nc1ncnn2c(-c3ccnc(F)c3)cc(N3CCC[C@@H](NC(=O)c4csc5c4CCCC5)C3)c12 [Example 160, TFA] please.
7.70

Provide measured pIC50 on full length SGK1 (Homo sapiens) for `CS(=O)(=O)c1ccc(-c2cc(N3CCC[C@@H](NC(=O)c4ccc(F)s4)C3)c3c(N)ncnn23)cc1` please.
8.30

Provide measured pIC50 on full length SGK1 (Homo sapiens) for `CC(=O)N1CC=C(c2cc(N3CCC[C@@H](NC(=O)c4cc(N5CCOCC5)c(C)s4)C3)c3c(N)ncnn23)C1` please.
7.66

Provide measured pIC50 on full length SGK1 (Homo sapiens) for `CC(=O)N1CC=C(c2cc(N3CCC[C@@H](NC(=O)c4sc5ccccc5c4OC4CN(C(=O)OC(C)(C)C)C4)C3)c3c(N)ncnn23)C1` please.
7.02

Provide measured pIC50 on full length SGK1 (Homo sapiens) for Nc1ncnn2c(C3=CCN(C(=O)[C@@H]4CCNC4)C3)cc(N3CCC[C@@H](NC(=O)c4ccc(Cl)s4)C3)c12 [Example 896, TFA] please.
8.00

Provide measured pIC50 on full length SGK1 (Homo sapiens) for Nc1ncnn2c(-c3cn(C4CCNC4)nn3)cc(N3CCC[C@@H](NC(=O)c4ccc(Cl)s4)C3)c12 (stereo partly shown) please.
6.29

Provide measured pIC50 on full length SGK1 (Homo sapiens) for COc1cnccc1-c1cc(N2CCC[C@@H](NC(=O)c3ccc(Cl)s3)C2)c2c(N)ncnn12 [Example 213, TFA] please.
8.30

Provide measured pIC50 on full length SGK1 (Homo sapiens) for CN(C)CCOc1cc(Cl)sc1C(=O)N[C@@H]1CCCN(c2cc(C3=CCN(S(C)(=O)=O)C3)n3ncnc(N)c23)C1 [Example 141, TFA] please.
8.52

Provide measured pIC50 on full length SGK1 (Homo sapiens) for CC(=O)N1CC=C(c2cc(N3CCC[C@@H](NC(=O)c4sc(Cl)cc4OC4CCCN(C)C4)C3)c3c(N)ncnn23)C1 (stereo partly shown) [Example 597] please.
8.00

Provide measured pIC50 on full length SGK1 (Homo sapiens) for `CS(=O)(=O)c1ccc(-c2cc(N3CCC[C@H](C(=O)Nc4nccs4)C3)c3c(N)ncnn23)cc1` please.
6.14

Provide measured pIC50 on full length SGK1 (Homo sapiens) for `Nc1ncnn2c(-c3cc(F)c(O)c(F)c3)cc(N3CCC[C@@H](NC(=O)c4ccc(Cl)s4)C3)c12` please.
7.92

Provide measured pIC50 on full length SGK1 (Homo sapiens) for `CC(=O)N1CC=C(c2cc(N3CCC[C@@H](NC(=O)c4cn5ccc(C#N)cc5n4)C3)c3c(N)ncnn23)C1` please.
6.32

Provide measured pIC50 on full length SGK1 (Homo sapiens) for `CC(=O)N1CC=C(c2cc(N3CCC[C@@H](NC(=O)Oc4ccccc4)C3)c3c(N)ncnn23)C1` please.
6.03

Provide measured pIC50 on full length SGK1 (Homo sapiens) for `CC(C)n1cc(-c2cc(N3CCC[C@@H](NC(=O)c4cccc(N5CCN(C)CC5)n4)C3)c3c(N)ncnn23)ccc1=O` please.
7.54

Provide measured pIC50 on full length SGK1 (Homo sapiens) for C[C@@]1(NC(=O)c2ccc(Cl)s2)CCCN(c2cc(-c3ccc(S(C)(=O)=O)cc3)n3ncnc(N)c23)C1 [Example 146, TFA] please.
6.08

Provide measured pIC50 on full length SGK1 (Homo sapiens) for `CC(=O)N1CC=C(c2cc(N3CCC[C@@H](NC(=O)c4csc(Cl)c4)C3)c3c(N)ncnn23)C1` please.
8.30

Provide measured pIC50 on full length SGK1 (Homo sapiens) for `CC(=O)c1ccc(-c2cc(N3CCC[C@@H](NC(=O)c4cccc(N5CCN(C)CC5)n4)C3)c3c(N)ncnn23)cc1` please.
7.59

Provide measured pIC50 on full length SGK1 (Homo sapiens) for `CN1CCN(c2cccc(C(=O)N[C@@H]3CCCN(c4cc(-c5ccc(C#N)nc5)n5ncnc(N)c45)C3)n2)CC1` please.
8.15

---

# experimental_system: full length SGK1 (Homo sapiens)
# Construct: 125 μM full length SGK1 (Life Technologies Part #PR7358A); purchased Life Technologies PR7358A
# experimental_protocol: SGK1 inhibition Assay A (Caliper LabChip electrophoretic separation of fluorescent peptide substrate and phosphorylated product)
# Format: biochemical
# experimental_conditions: Assay A; 20 μM ATP, 40 min incubation; read-out: SGK1 IC50
Assignment: determine reported pIC50 for the given molecules.
Worth noting: pIC50 values are minus log10 of concentrations stated in mol/L.

Provide measured pIC50 on full length SGK1 (Homo sapiens) for `COc1ccc(C(=O)N[C@@H]2CCCN(c3cc(-c4ccc(S(C)(=O)=O)cc4)n4ncnc(N)c34)C2)s1` please.
8.10

Provide measured pIC50 on full length SGK1 (Homo sapiens) for `CN(C)CCn1c(C(=O)N[C@@H]2CCCN(c3cc(-c4ccc(C#N)nc4)n4ncnc(N)c34)C2)cc2ccccc21` please.
6.05

Provide measured pIC50 on full length SGK1 (Homo sapiens) for `CN(C)CCOc1cc(Cl)sc1C(=O)N[C@@H]1CCCN(c2cc(-c3ccc(C(F)F)nc3)n3ncnc(N)c23)C1` please.
8.70

---

Assignment: determine reported pIC50 for the given compounds.
# experimental_system: full length SGK1 (Homo sapiens, UniProt O00141)
# Construct: 125 μM full length SGK1 (Life Technologies Part #PR7358A); purchased Life Technologies PR7358A
# Sequence (O00141 1-431): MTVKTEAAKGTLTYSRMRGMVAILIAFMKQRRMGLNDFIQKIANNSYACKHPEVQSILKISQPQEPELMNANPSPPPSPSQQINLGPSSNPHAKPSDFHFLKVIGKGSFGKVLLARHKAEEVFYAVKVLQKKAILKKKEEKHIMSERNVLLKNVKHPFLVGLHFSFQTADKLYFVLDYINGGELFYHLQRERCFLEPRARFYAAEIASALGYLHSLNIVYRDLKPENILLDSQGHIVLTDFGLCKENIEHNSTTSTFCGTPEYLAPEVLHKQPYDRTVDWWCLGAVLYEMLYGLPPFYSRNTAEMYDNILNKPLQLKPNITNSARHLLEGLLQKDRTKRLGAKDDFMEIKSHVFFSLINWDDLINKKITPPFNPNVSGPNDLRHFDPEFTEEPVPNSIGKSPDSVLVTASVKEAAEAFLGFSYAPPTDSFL
# experimental_protocol: SGK1 inhibition Assay A (Caliper LabChip electrophoretic separation of fluorescent peptide substrate and phosphorylated product)
# Format: biochemical
# experimental_conditions: Assay A; 20 μM ATP, 40 min incubation; read-out: SGK1 IC50
Structures can show the parent of a compound that is named as a salt.
Worth noting: pIC50 values are minus log10 of concentrations stated in mol/L.

Note down pIC50 recorded for CC(=O)N1CC=C(c2cc(N3CCC[C@@H](NC(=O)c4cccc(N5CCNC(C)(C)C5)n4)C3)c3c(N)ncnn23)C1 [Example 773]
9.00

Note down pIC50 recorded for CC(=O)N1CC=C(c2cc(N3CCC[C@@H](NC(=O)c4sc(C(F)F)cc4C4CCN(C)CC4)C3)c3c(N)ncnn23)C1 [Example 393]
6.71

Note down pIC50 recorded for CC(=O)N1CC=C(c2cc(N3CCC[C@@H](NC(=O)c4sc(C(F)F)cc4C4CCN(C)C4)C3)c3c(N)ncnn23)C1 (stereo partly drawn) [Example 406]
6.51

Note down pIC50 recorded for CC(=O)N1CCC(Oc2cc(C(F)F)sc2C(=O)N[C@@H]2CCCN(c3cc(-c4ccc(=O)n(CC(F)F)c4)n4ncnc(N)c34)C2)CC1 [Example 414]
7.96

Note down pIC50 recorded for CS(=O)(=O)N1CC=C(c2cc(N3CCC[C@@H](NC(=O)c4ccns4)C3)c3c(N)ncnn23)C1 [Example 112, TFA]
8.40

Note down pIC50 recorded for CS(=O)(=O)c1ccc(-c2cc(N3CCCC(NC(=O)c4ccc(Cl)c(Cl)c4)C3)c3c(N)ncnn23)cc1 (stereo not drawn) [Example 6]
6.80
